Sourced from ChEMBL document CHEMBL1201862

# Test system: 786-0
# run_description: NCI tumour cell line growth inhibition, 48 h
Activity calls are given as the source filed them. Cut-off read from the data, not from the text of the source: active = GI50 up to about 1.1 µM and inactive = higher.
measured_property: GI50

Data request, read-out GI50, for Cc1cc(NS(=O)(=O)c2ccc(Nc3c4ccccc4nc4c(C(=O)NCCN(C)C)ccc(Cl)c34)cc2)no1
4.41 µM (inactive)

Cc1nc2sc(C(=O)c3ccc(Cl)cc3)c(N)c2c(-c2ccccc2Cl)c1C(=O)Nc1ccccc1 ?
10 µM (inactive)

Request: CCOC(=O)c1c(C)nc2c3ccccc3c(C#N)c(C)n12
> 10 µM (inactive)

Follow-up entry: CC(N)Cc1ccc(Cl)c(Cl)c1 (centres undefined)
41.5 µM (inactive)

Then this compound: C=CC(Br)(CBr)CCC(Br)C(C)C (centres undefined)
1.58 µM (inactive)

Then what about the compound CC[As](CC)SCC1OC(OC(C)=O)C(OC(C)=O)C(OC(C)=O)C1OC(C)=O (centres undefined) ?
14.4 µM (inactive)

Subsequent entry: COc1ccc(/C=C2\N=C(N3CCOCC3)NC2=O)cc1
> 100 µM (inactive)

Another: NC(Cc1ccccc1)C(=O)OCN1C(=O)C2C3C=CC(C2C1=O)C1C2C(=O)N(COC(=O)C(N)Cc4ccccc4)C(=O)C2C31 (centres undefined)
21.1 µM (inactive)

Entry to check: Cc1cc2c(cc1Cl)SSc1cc(Cl)c(C)cc1S(=O)(=O)Nc1nc(N)nn1C(O)n1nc(N)nc1NS2(=O)=O
> 10 µM (inactive)

Then what about the compound O=C1CCCCC1C1(O)C(=O)Nc2cc(F)ccc21 (centres undefined) ?
> 100 µM (inactive)

# repeat for COc1ccc(C[C@H]2COC(=O)[C@@H]2Cc2cccc(Br)c2)cc1OC
28.1 µM (inactive)

Same question for O=c1c2ccccc2nc2n1C(c1ccc([N+](=O)[O-])cc1)C2(c1ccccc1)c1ccccc1 (centres undefined) please.
> 100 µM (inactive)

Note, next up: OCC(S)CS.[Bi] (centres undefined)
11.2 µM (inactive)

Try CCOP(=O)(OCC)C(C)(C)OC(=O)NC#N next.
> 100 µM (inactive)
